# protocol-details: Inhibition of NADH:ubiquinone oxidoreductase from house fly (Musca domestica) flight muscles
# Assay type: tissue-based, Muscle tissue
measured-attribute: IC50 (nM)

{"smiles-code": "Cc1c(NCc2ccc(C(C)(C)C)cc2)oc2ccccc2c1=O", "IC50 [nM]": 20}
{"smiles-code": "CC(C)(C)c1ccc(CSc2cc(=O)c3ccccc3o2)cc1", "IC50 [nM]": 500}
{"smiles-code": "Cc1c(NCCc2ccc(C(C)(C)C)cc2)oc2ccccc2c1=O", "IC50 [nM]": 200}
{"smiles-code": "Cc1c(SCc2ccc(C(C)(C)C)cc2)oc2ccccc2c1=O", "IC50 [nM]": 8}
{"smiles-code": "CC(C)(C)c1ccc(CSc2oc3ccccc3c(=O)c2Cl)cc1", "IC50 [nM]": 6}

1 = Cc1c(S(=O)(=O)Cc2ccc(C(C)(C)C)cc2)oc2ccccc2c1=O
2 = Cc1c(SCCc2ccc(C(C)(C)C)cc2)oc2ccccc2c1=O
Inquiry: 1 or 2 : whose IC50 is greater? Let me know the label of the one you choose.
Reply text: 1
